Molecular target: Paired box protein Pax-6 (Homo sapiens) (UniProt P26367)
Sequence (P26367 whole entry, looked up): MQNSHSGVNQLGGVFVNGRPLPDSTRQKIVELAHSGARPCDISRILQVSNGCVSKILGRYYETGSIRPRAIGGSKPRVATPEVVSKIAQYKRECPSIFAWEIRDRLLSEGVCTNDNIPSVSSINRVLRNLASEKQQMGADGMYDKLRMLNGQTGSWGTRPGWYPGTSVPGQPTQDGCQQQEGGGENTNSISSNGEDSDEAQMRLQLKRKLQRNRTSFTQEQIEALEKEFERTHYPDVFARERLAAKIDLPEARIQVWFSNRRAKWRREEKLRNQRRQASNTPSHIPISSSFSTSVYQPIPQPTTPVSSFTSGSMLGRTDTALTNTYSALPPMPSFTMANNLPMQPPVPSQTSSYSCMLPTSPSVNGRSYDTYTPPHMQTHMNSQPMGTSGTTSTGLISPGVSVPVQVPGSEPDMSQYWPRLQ
Assay: ATG_Pax6_CIS: Attagene CIS-FACTORIAL HepG2 Assay for human Paired Box 6 (PAX6) (AID 2282956)
Details: HepG2 CIS-FACTORIAL PAX6 reporter transcription, RNA readout; actives raise or lower the signal
Activity calls are given as the source filed them. Rule for the calls: active = hit-call score of the fitted dose curve at least 0.9, where 1 is the maximum; inactive = score below 0.9.
Classes used: active, inactive

1) ClC1=C(Cl)[C@]2(Cl)[C@@H]3[C@@H](Cl)[C@@H](Cl)C[C@@H]3[C@@]1(Cl)C2(Cl)Cl    inactive
2) CC(Br)C(=O)O (stereo unspecified)    inactive
3) Cc1ccc2ccccc2c1C    inactive
4) Nc1ccc(-c2ccc(N)c(Cl)c2)cc1Cl    inactive
5) O=c1[nH]c(=O)[nH]c(=O)[nH]1    inactive
6) CCN1CCC2(CC1)COc1cc3c(cc12)N(C(=O)c1ccc(-c2ccc(-c4nnc(C)o4)cc2C)cc1)CC3    inactive
7) O=C(Cc1ccccc1)c1ccccc1    inactive
8) CC(C)CCCCCCOC(=O)c1ccccc1C(=O)OCCCCCCC(C)C    inactive
9) Nc1ccc(Cl)cc1C(=O)c1ccccc1    active
10) C=C(C)C(=O)[O][Sn]([CH2]CCC)([CH2]CCC)[CH2]CCC    active
11) Nc1ncc([N+](=O)[O-])s1    inactive
12) CCC[CH2][Sn]([CH2]CCC)([CH2]CCC)[O]C(=O)c1ccccc1    inactive
13) Cc1cc(Cl)ccc1O[C@H](C)C(=O)O    inactive
14) CC(=O)C(Cl)C(=O)N(C)C (stereo unspecified)    inactive
15) CCOP(=S)(OCC)SCSP(=S)(OCC)OCC    inactive
16) O=C(Nc1ccc2[nH]ccc2c1)c1cc2cc(F)ccc2n1Cc1cccc(F)c1    active
17) Cc1cc(=O)[nH]o1    inactive
18) O=[N+]([O-])c1ccc(O)c([N+](=O)[O-])c1    inactive
19) CC12CC1(C)C(=O)N(c1cc(Cl)cc(Cl)c1)C2=O (stereo unspecified)    inactive
20) C(=NC1CCCCC1)=NC1CCCCC1    inactive
21) C=CCc1ccc(OC)cc1    inactive

====

Read-out: CYP3A5 (gene 1577)
Assay: LTEA_HepaRG_CYP3A5: Life Technologies and Expression Analysis (LTEA) Assay for CYP3A5 using HepaRG (AID 2283493)
Details: mRNA level, 48 h; actives raise or lower the signal
Calls of active or inactive are those of the source. Rule for the calls: active = hit-call score of the fitted dose curve at least 0.9, where 1 is the maximum; inactive = score below 0.9.
observationType: AC50

1. O=C(O)C(F)(F)C(F)(F)C(F)(F)C(F)(F)C(F)(F)C(F)(F)F    inactive
2. O=C1C2(Cl)C3(Cl)C4(Cl)C(Cl)(Cl)C5(Cl)C3(Cl)C1(Cl)C5(Cl)C24Cl (stereo unspecified)    92.4 µM (active)
3. O=[N+]([O-])c1ccc(O)c([N+](=O)[O-])c1    10.6 µM (active)
4. CCOP(=S)(OCC)Oc1nc(Cl)c(Cl)cc1Cl    inactive
5. ClC1(Cl)C2(Cl)C3(Cl)C4(Cl)C(Cl)(Cl)C5(Cl)C3(Cl)C1(Cl)C5(Cl)C24Cl (stereo unspecified)    inactive
6. CC(C)(C)c1cc(O)ccc1O    inactive

====

Read-out: Urokinase-type plasminogen activator receptor (uPAR), PLAUR (gene 5329)
Assay: BSK_BE3C_uPAR: BioMAP Diversity Plus: BE3C Assay for Urokinase-type plasminogen activator receptor (uPAR) Biomarker Activity (AID 2283039)
Conditions: primary human bronchial epithelial cells; actives raise or lower the signal
The source made the active and inactive calls. Rule for the calls: active = hit-call score of the fitted dose curve at least 0.9, where 1 is the maximum; inactive = score below 0.9.
Classes used: true for active, false for inactive

1. Oc1ccc(-c2ccccc2)cc1    false
2. CC(=O)[O][Hg][c]1ccccc1    true
3. NC(=O)O    false
4. C[C@@H]1C[C@@H]([C@H](O)CC2CC(=O)NC(=O)C2)C(=O)[C@@H](C)C1    true
5. Nc1cccc2ccccc12    false
6. CCOC(=O)/C=C(C)/C=C/C[C@@H](C)CCCC(C)C    true
7. O=C(OC1CCCCC1)c1ccccc1C(=O)OC1CCCCC1    false
8. CC(C)(C)CC(C)(C)c1ccc(O)cc1    true
9. CCOP(=S)(OCC)Oc1ccc(S(C)=O)cc1 (stereo not drawn)    false
10. COP(=S)(OC)Oc1ccc(Sc2ccc(OP(=S)(OC)OC)cc2)cc1    false
11. O=c1[nH]c(=O)[nH]c(=O)[nH]1    false
12. CCOP(=S)(OCC)SCCS(=O)(=O)CC    false
13. CCSC(C)CC1CC(=O)C(C(CC)=NOC/C=C/Cl)=C(O)C1 (stereo not drawn)    false

====

Read-out: catalase (CAT), CAT (gene 847)
Experiment: LTEA_HepaRG_CAT: Life Technologies and Expression Analysis (LTEA) Assay for catalase (CAT) using HepaRG (AID 2283452)
Conditions: mRNA level, 48 h; actives raise or lower the signal
Activity calls are given as the source filed them. How the source made its calls: active means hit-call score of the fitted dose curve at least 0.9, where 1 is the maximum; inactive means score below 0.9.
Classes used: true for active, false for inactive

1. CCC(=O)C(CC(C)N(C)C)(c1ccccc1)c1ccccc1 (stereo unspecified)    false
2. Cc1ccccc1N    false
3. O=C(O)C(F)(F)C(F)(F)C(F)(F)C(F)(F)C(F)(F)C(F)(F)C(F)(F)C(F)(F)C(F)(F)C(F)(F)F    false
4. C=C(C)C(=O)[O][Sn]([CH2]CCC)([CH2]CCC)[CH2]CCC    false
5. CC(C)(C)CC(C)(C)c1ccc(O)cc1    true
6. COc1cc(-c2ccc(N)c(OC)c2)ccc1N    false
7. Oc1cccc2cccnc12    false
8. CC12CC1(C)C(=O)N(c1cc(Cl)cc(Cl)c1)C2=O (stereo unspecified)    false
9. O=C(O)C(F)(F)C(F)(F)C(F)(F)C(F)(F)C(F)(F)C(F)(F)F    false
10. CC(C)(OO)c1ccccc1    false
11. CC(=O)[O][Hg][c]1ccccc1    true

====

Test: CCTE_Harrill_HTTr_Viability_MCF7: CCTE's 6-hour Cell Viability Assessment for the High-Throughput Transcriptomics (HTTr) Platform, in MCF-7 cells cultured in DMEM + 10% fetal bovine serum, Harrill Lab (AID 2284010)
Activity calls are given as the source filed them. Rule for the calls: active = hit-call score of the fitted dose curve at least 0.9, where 1 is the maximum; inactive = score below 0.9.
observationType: outcome

1) Oc1c(I)cc(I)cc1I    inactive
2) CCCCOCCOC(C)=O    inactive
3) CC1(C)Cc2cccc(O)c2O1    inactive
4) CCc1ccccc1C    inactive
5) O=C(O)C(F)(F)C(F)(F)C(F)(F)C(F)(F)C(F)(F)C(F)(F)F    inactive
6) O=C(Cc1ccccc1)c1ccccc1    inactive
7) C[C@@H](Oc1ccc(Cl)cc1Cl)C(=O)O    inactive
8) COc1ccc(C=O)cc1OC    inactive

====

Read-out: Matrix Metallopeptidase 9 (MMP9), MMP9 (gene 4318)
Assay: BSK_KF3CT_MMP9: BioMAP Diversity Plus: KF3CT Assay for Matrix Metallopeptidase 9 (MMP9) Biomarker Activity (AID 2283074)
Settings: primary human keratinocytes with fibroblasts; actives raise or lower the signal
Activity calls are given as the source filed them. The calls were made as follows: active = hit-call score of the fitted dose curve at least 0.9, where 1 is the maximum; inactive = score below 0.9.
Classes used: label 1 (active), label 0 (inactive)

1) CCOP(=S)(OCC)SCSP(=S)(OCC)OCC    label 0
2) Nc1cccc2ccccc12    label 1
3) C[C@@H]1C[C@@H]([C@H](O)CC2CC(=O)NC(=O)C2)C(=O)[C@@H](C)C1    label 1
4) C=C(C)C(=O)[O][Sn]([CH2]CCC)([CH2]CCC)[CH2]CCC    label 1
5) COC(=O)c1sccc1S(=O)(=O)NC(=O)Nc1nc(C)nc(OC)n1    label 0
6) O=Cc1cccc(Oc2ccccc2)c1    label 0
7) Oc1ccc(-c2ccccc2)cc1    label 0
8) Nc1ncc([N+](=O)[O-])s1    label 0
9) COc1cc(OC)nc(NC(=O)NS(=O)(=O)c2ncccc2C(=O)N(C)C)n1    label 0
10) CC(=O)C(Cl)C(=O)N(C)C (stereo not drawn)    label 0
11) CCC(=O)C(CC(C)N(C)C)(c1ccccc1)c1ccccc1 (stereo not drawn)    label 0
12) CC12CC1(C)C(=O)N(c1cc(Cl)cc(Cl)c1)C2=O (stereo not drawn)    label 0
13) C(=NC1CCCCC1)=NC1CCCCC1    label 1
14) ClCC(Cl)CCl    label 0
15) CC(C)(c1ccccc1)c1ccc(O)c(C(C)(C)c2ccccc2)c1    label 1
16) CC(=O)OC(c1ccccc1)C(Cl)(Cl)Cl (stereo not drawn)    label 0
17) CC(C)(OO)c1ccccc1    label 0
18) C[C@]12CCC(=O)C[C@@H]1CC[C@@H]1[C@@H]2CC[C@]2(C)[C@@H](O)CC[C@@H]12    label 0
19) COP(=S)(OC)Oc1c(Cl)cc(C)cc1Cl    label 1
20) OCc1ccco1    label 0
21) CC(C)c1ccc(CO)cc1    label 0
22) CCC(C)(C)c1ccc(O)c(C(C)(C)CC)c1    label 1
23) ClC1=C(Cl)[C@]2(Cl)[C@H]3[C@H]([C@H]4C=C[C@H]3C4)[C@@]1(Cl)C2(Cl)Cl    label 0
24) COC[C@H](C)N(C(=O)CCl)c1c(C)csc1C    label 0
25) CCOP(=S)(OCC)Oc1nc(Cl)c(Cl)cc1Cl    label 0
26) Cc1ccccc1N    label 0
27) CCOC(=O)/C=C(C)/C=C/C[C@@H](C)CCCC(C)C    label 1
28) COc1cc(-c2ccc(N)c(OC)c2)ccc1N    label 0
29) CCSC(C)CC1CC(=O)C(C(CC)=NOC/C=C/Cl)=C(O)C1 (stereo not drawn)    label 0
30) Oc1c(I)cc(I)cc1I    label 1
31) NC(=S)Nc1ccccc1    label 0
32) CC(C)CCCCCCOC(=O)c1ccccc1C(=O)OCCCCCCC(C)C    label 0
33) CCOP(=S)(OCC)Oc1ccc(S(C)=O)cc1 (stereo not drawn)    label 0
34) CN(C)N=O    label 0
35) O=S(=O)(c1ccc(Cl)cc1)c1ccc(Cl)cc1    label 0
36) Oc1cccc2cccnc12    label 1
37) O=[N+]([O-])c1ccc2c3c(cccc13)CC2    label 0
38) CC1(C)Cc2cccc(O)c2O1    label 0
